System: corn (Zea mays)
Test: Test E greenhouse herbicide test, pre- and postemergence
Format: in vivo
Settings: 250 g ai/ha, Postemergence; scale 0 to 100 (0 no effect, 100 complete control)
reported endpoint: Plant response rating, Corn
Could you respond with only the numeric value?

Lab note: Cc1nn(C)c(=O)c(-c2ccc(F)c3ccccc23)c1O gave Plant response rating, Corn of 5

Lab note: Cc1ccc2ccccc2c1-c1c(OC(=O)OC(C)C)c(C)nn(C)c1=O gave Plant response rating, Corn of 30

Lab note: Cc1cc2ccccc2c(-c2c(O)c(C)nn(C)c2=O)c1C gave Plant response rating, Corn of 5

Lab note: Cc1nn(C)c(=O)c(-c2ccc(Br)c3ccccc23)c1O gave Plant response rating, Corn of 0

* * *

Tested on: crabgrass, large (large crabgrass, Digitaria sanguinalis)
Assay: Test C greenhouse herbicide test, pre- and postemergence
Type: in vivo
Conditions: postemergence, 62 g ai/ha; scale 0 to 100, 0 no effect, 100 complete control
reported endpoint: Crabgrass, Large plant response rating

Lab note: CCc1sc2c(C)cc(C)cc2c1-c1c(O)c(C)nn(C)c1=O gave Crabgrass, Large plant response rating of 20

Lab note: Cc1sc2ccccc2c1-c1c(O)c(Cl)nn(C)c1=O gave Crabgrass, Large plant response rating of 5

Lab note: CCc1sc2ccc(C)cc2c1-c1c(O)c(C)nn(C)c1=O gave Crabgrass, Large plant response rating of 30

Lab note: COC(=O)Oc1c(C)nn(C)c(=O)c1-c1c(C)sc2ccc(C)cc12 gave Crabgrass, Large plant response rating of 25

Lab note: Cc1ccc2ccccc2c1-c1c(O)c(Br)nn(C)c1=O gave Crabgrass, Large plant response rating of 20

Lab note: CCC(=O)Oc1c(C)nn(C)c(=O)c1-c1c(C)ccc2ccccc12 gave Crabgrass, Large plant response rating of 5

Lab note: Cc1ccc2sc(C)c(-c3c(OC(=O)C(C)(C)C)c(C)nn(C)c3=O)c2c1 gave Crabgrass, Large plant response rating of 20

Lab note: Cc1nn(C)c(=O)c(-c2ccc(Br)c3ccccc23)c1O gave Crabgrass, Large plant response rating of 10

Lab note: Cc1nn(C)c(=O)c(-c2c(C)sc3ccc(Br)cc23)c1O gave Crabgrass, Large plant response rating of 5

Lab note: CC(=O)Oc1c(C)nn(C)c(=O)c1-c1c(C)cc(C)c2ccccc12 gave Crabgrass, Large plant response rating of 20

* * *

Test system: blackgrass (Alopecurus myosuroides)
Assay: Test D controlled growth environment herbicide test, pre- and postemergence
Assay type: in vivo
Details: Preemergence, 62 g ai/ha; scale 0 to 100 (0 no effect, 100 complete control)
reported endpoint: Plant response rating, Blackgrass
Could you respond with only the numeric value?

Lab note: Cc1nn(C)c(=O)c(-c2c(C)sc3ccc(Br)cc23)c1O gave Plant response rating, Blackgrass of 45

Lab note: Cc1nn(C)c(=O)c(-c2cccc3ccccc23)c1O gave Plant response rating, Blackgrass of 30

Lab note: Cc1nn(C)c(=O)c(-c2ccc(F)c3ccccc23)c1O gave Plant response rating, Blackgrass of 75

Lab note: CC(=O)Oc1c(C)nn(C)c(=O)c1-c1c(C)sc2ccc(Cl)cc12 gave Plant response rating, Blackgrass of 35

Lab note: Cn1nc(Br)c(O)c(-c2cccc3ccccc23)c1=O gave Plant response rating, Blackgrass of 40

* * *

Would you mind telling me the reported Plant response rating, Waterhemp of each entry?
Tested on: waterhemp (common waterhemp, Amaranthus rudis)
Test: Test C greenhouse herbicide test, pre- and postemergence
Format: in vivo
Conditions: Postemergence, 31 g ai/ha; scale 0 to 100 (0 no effect, 100 complete control)
Could you respond with only the numeric value?

Lab note: CCC(=O)Oc1c(C)nn(C)c(=O)c1-c1ccc(Br)c2ccccc12 gave Plant response rating, Waterhemp of 98

Lab note: Cc1nn(C)c(=O)c(-c2cccc3ccc(Br)cc23)c1O gave Plant response rating, Waterhemp of 75

Lab note: COC(=O)Oc1c(OC)nn(C)c(=O)c1-c1c(C)ccc2ccccc12 gave Plant response rating, Waterhemp of 80
